Parameter: pEC50. Scope: all listed entries.
- test_system: recombinant human S1P1 receptor (Homo sapiens, UniProt P21453)
- Sequence (P21453 whole entry): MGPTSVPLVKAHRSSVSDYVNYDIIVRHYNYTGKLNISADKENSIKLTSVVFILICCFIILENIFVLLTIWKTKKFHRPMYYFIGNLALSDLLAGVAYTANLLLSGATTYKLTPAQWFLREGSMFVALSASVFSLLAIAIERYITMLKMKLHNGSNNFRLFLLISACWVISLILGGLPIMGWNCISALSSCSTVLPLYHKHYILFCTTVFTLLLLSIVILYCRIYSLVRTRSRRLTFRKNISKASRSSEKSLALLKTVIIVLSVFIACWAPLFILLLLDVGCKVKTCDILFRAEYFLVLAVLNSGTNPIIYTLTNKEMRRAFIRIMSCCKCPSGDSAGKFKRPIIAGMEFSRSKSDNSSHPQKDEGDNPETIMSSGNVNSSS
- protocol_text: GTPγS assay to determine EC50 values
- measurement_setup: agonist-induced 35S-GTPγS binding, membranes of CHO cells expressing recombinant human S1P1 receptor
Quick note: pEC50 means taking -log10 of the concentration in moles per liter.

- compound: "Cc1cc(-c2nc(-c3cc(C)c(OCC(O)CNC(=O)CO)c(Cl)c3)no2)cnc1CC(C)C (stereo not drawn)"
  reading: 9.22
- compound: "Cc1cc(-c2nc(-c3cc(C)c(OCC(O)CNC(=O)CO)c(C)c3)no2)cnc1CC(C)C (racemic)"
  reading: 8.57

Kindly consider the entry below.
Exercise: Reported pEC50 for recombinant human S1P1 receptor (Homo sapiens, UniProt P21453), given COc1cc(-c2noc(-c3cnc(CC(C)C)c(C)c3)n2)cc(Cl)c1OCC(O)CNC(=O)CO (stereo not drawn) ?
Solution: 8.40

// data source = patent US8288554B2
